assay: Viability qHTS for spleen associated tyrosine kinase inhibitor (SYKi) drug resistant MV4-11 cells (AID 1963824); details: SYKi-resistant MV4-11 viability, CellTiter-Glo, 72 h; series mostly up to 45 µM; further: nearly all actives have a fitted effect of over 35% in size
Results filed as inconclusive are left out. Activity calls are given as the source filed them. The call rests on the fitted dose curve; in most records, active means well fitted cell-killing curve with a large enough effect; inconclusive means small, poorly fitted or top-dose-only effect, or effect the other way; inactive means no such curve, though single readings can be large or run the other way.
API: response.call in active, inactive

COc1c(C)c(C(=O)c2ccc(N)c(C(=O)O)c2)n2ccccc12 : inactive
CNCC[C@H](Oc1cccc2ccccc12)c1cccs1 : active

Attention now shifts to the item below.
GET /call?item= "CCN(CC)CC(=O)Oc1ccc(NC(C)=O)cc1" returns the recorded outcome of this test. inactive

* * *

test: Cellular viability qHTS for adrenocortical cancer (ACC) cell line NCI-H295R (AID 1963990); conditions: CellTiter-Glo ATP luminescence, 48 h; series mostly up to 46.1 µM; further: nearly all actives have a fitted effect of over 60% in size
Records with an inconclusive call do not appear. Activity calls are given as the source filed them. The call rests on the fitted dose curve; in most records, active means well fitted cell-killing curve with a large enough effect; inconclusive means small, poorly fitted or top-dose-only effect; inactive means flat fitted curve, though single readings scatter.
API: response.call in Y (active), N (inactive)

Illustrative cases are given below, each with its answer.
C[N+]1(C)CCCC(OC(=O)C(O)(c2ccccc2)c2ccccc2)C1 (stereo not given) : N
Cc1nn(Cc2ccccc2Cl)c(C)c1CN(C)CC(O)COc1ccc(Cl)cc1 (stereo not given) : Y
CNCc1ccc(-c2cc(-c3nc(-c4ccc(S(=O)(=O)C(C)C)cc4)cnc3N)on2)cc1 : Y
CC(=O)N(CC(O)CN(C(C)=O)c1c(I)c(C(=O)NCC(O)CO)c(I)c(C(=O)NCC(O)CO)c1I)c1c(I)c(C(=O)NCC(O)CO)c(I)c(C(=O)NCC(O)CO)c1I (stereo not given) : N

GET /call?item= "Cc1cc(=O)c2c(O)c3c(O)cc(=O)c4c3c3c(cc(O)c1c23)C(C)(C)C=4O" returns the recorded outcome of this test. Y

GET /call?item= "CC1=C(C/C=C(\C)CCC[C@H](C)CCC[C@H](C)CCCC(C)C)C(=O)c2ccccc2C1=O" returns the recorded outcome of this test. N

* * *

biological target: Cytochrome P450 3A7 (Homo sapiens) (UniProt P24462); assay: Cytochrome P450 family 3 subfamily A member 7 (CYP3A7) small molecule antagonists: luciferase biochemical qHTS assay (AID 1963596); conditions: P450-Glo CYP3A7 enzyme luminescence, 1 h; series mostly up to 57.4 µM; further: nearly all actives have a fitted effect of over 40% in size
Sequence (P24462 whole entry, looked up): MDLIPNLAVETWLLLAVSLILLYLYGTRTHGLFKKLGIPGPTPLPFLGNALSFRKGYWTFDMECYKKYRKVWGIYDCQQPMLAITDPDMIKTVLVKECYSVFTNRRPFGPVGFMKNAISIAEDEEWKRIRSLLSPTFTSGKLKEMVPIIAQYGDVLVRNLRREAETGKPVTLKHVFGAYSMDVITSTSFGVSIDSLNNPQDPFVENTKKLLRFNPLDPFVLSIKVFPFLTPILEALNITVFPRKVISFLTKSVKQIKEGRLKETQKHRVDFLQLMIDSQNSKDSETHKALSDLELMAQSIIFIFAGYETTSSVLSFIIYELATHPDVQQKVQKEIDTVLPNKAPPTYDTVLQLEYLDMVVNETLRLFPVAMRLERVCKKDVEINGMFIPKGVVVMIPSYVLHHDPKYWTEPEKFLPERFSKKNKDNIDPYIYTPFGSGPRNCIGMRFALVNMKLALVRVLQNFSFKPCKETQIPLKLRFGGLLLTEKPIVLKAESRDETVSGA
Results filed as inconclusive are left out. Calls of active or inactive are those of the source. The call rests on the fitted dose curve; in most records, active means well fitted inhibition curve with a large enough effect; inconclusive means small, poorly fitted or top-dose-only effect; inactive means no such curve, though single readings can be large or run the other way.
API: response.call in active, inactive

Illustrative cases are given below, each with its answer.
N#Cc1ccc(C(=O)N2CCC3(CC2)N=C(N)c2c(F)ccc(F)c2N3)cn1 : inactive
CCOC(=O)c1ccc(O)cc1 : inactive
COCC(=O)Nc1c(I)c(C(=O)NCC(O)CO)c(I)c(C(=O)N(C)CC(O)CO)c1I (stereo not given) : inactive
CCOC(=O)c1ccc(OCCN2C[C@H](O)[C@@H](O)[C@H](O)[C@H]2CO)cc1 : inactive

GET /call?item= "CC(C)=CCNc1ncnc2c1ncn2[C@@H]1O[C@H](CO)[C@@H](O)[C@H]1O" returns the recorded outcome of this test. inactive

GET /call?item= "C=C1[C@H](CO)[C@@H](O)C[C@@H]1n1cnc2c(=O)[nH]c(N)nc21" returns the recorded outcome of this test. inactive

GET /call?item= "C[C@@H](C(=O)O)c1ccc(-c2ccccc2)c(F)c1" returns the recorded outcome of this test. inactive

GET /call?item= "CCN(CC)CC(=O)Nc1c(C)cccc1C(=O)OC" returns the recorded outcome of this test. inactive

GET /call?item= "CCOc1ccc(NC(C)=O)cc1" returns the recorded outcome of this test. inactive
